From: paper PMC10397247

- study_system: T1, 4H3129-bA
- T1 chain: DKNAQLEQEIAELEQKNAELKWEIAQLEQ
- experiment: two-hybrid library CCNG1;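 also: natural log of median RNA to DNA barcode read ratio; higher means stronger binding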
Quick reference for interaction score among some binders
API note: the answer field is a bare number with no unit suffix.

Here's what some known entries look like.
| binder | numeric_readout |
| --- | --- |
| DENAQLKQENAELEQKIAELKWKIAQLKQ [4H1710-bA] | 0.367 |
| DKNAQLEQEIAELEQKNAELKWEIAQLEQ [4H3129-bA] | -0.78 |
| DENAQLKQKNAELKQEIAELEWEIAQLEQ [4H1985-bA] | -1.14 |

Tell me the measured interaction score of DENAQLKQKIAELEQEIAELKWENAQLKQ [4H1804-bA] , please.
0.386
